# ASSAY REMARKS: Urine concentration analysis / urinary recovery of Compound 1 in beagle dogs
# Type: in vivo
# RECORDED CONDITIONS: male, beagle, dog, urine, iv, 10 mg/kg, 10 mg/kg IV, Dog 6003, 24 hr, read-out: Cmpd 1 urine concentration
QUANTITY KIND: concentration at 24 h (µg/mL)
Answers are plain numbers, in µg/mL.

Query: Query (molecule): CN[C@@H]1[C@@H](O)[C@@H](O[C@@H]2[C@@H](O)[C@H](O[C@H]3OC(CNCCO)=CC[C@H]3N)[C@@H](N)C[C@H]2NC(=O)[C@@H](O)CCN)OC[C@]1(C)O [Compound 1] ; field requested: concentration at 24 h
Result: 44

The measurements presented in this section are drawn from patent US20120208781A1.
